Test system: HS 578T breast
Experiment: NCI tumour cell line growth inhibition, 48 h
Measured Metric: TGI

// worked examples, TGI included
CC(=O)c1c(-c2ccco2)c(C#N)c(=S)n(C2OC(CO)C(O)C(O)C2O)c1C (centres undefined)    > 100 µM
Fc1ccc(-c2ncn(C3CCNCC3)c2-c2ccnc(Oc3ccc(Cl)cc3)n2)cc1    > 11.3 µM
Cc1cc(C)c(-c2c(O)c(Br)c(-c3c(C)cc(C)c(Br)c3C)c(O)c2Br)c(C)c1Br    11.9 µM
CNCC(SC)c1ccc(O)c(O)c1 (centres undefined)    > 100 µM

Which measured TGI value corresponds to C=CCN1C(=O)C[C@H](Cc2ccccc2)NC(=O)C[C@H](Cc2ccccc2)N(CC=C)C(=O)C[C@H](Cc2ccccc2)NC(=O)C[C@@H]1Cc1ccccc1 ? > 100 µM
